# study.system: T1, full-length human GIPR (GenBank NM_000164) with an N-terminal FLAG tag on HEK-293T cells (human), P48546
# T1 chain: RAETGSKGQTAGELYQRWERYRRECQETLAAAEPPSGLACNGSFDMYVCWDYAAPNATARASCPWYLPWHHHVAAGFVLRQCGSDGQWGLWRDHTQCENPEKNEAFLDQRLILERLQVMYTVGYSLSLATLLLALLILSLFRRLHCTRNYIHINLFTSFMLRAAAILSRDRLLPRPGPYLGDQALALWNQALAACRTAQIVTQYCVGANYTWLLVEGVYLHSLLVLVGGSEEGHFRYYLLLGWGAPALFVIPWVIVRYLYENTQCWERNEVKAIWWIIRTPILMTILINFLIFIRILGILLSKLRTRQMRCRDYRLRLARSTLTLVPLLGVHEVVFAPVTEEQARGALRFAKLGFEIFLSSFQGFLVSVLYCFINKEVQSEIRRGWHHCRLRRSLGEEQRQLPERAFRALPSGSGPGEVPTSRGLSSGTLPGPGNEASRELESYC
# measurement.notes: cell-based or functional assay
Numbered stars: 1 amine (or outer) side, 2 acyl side, 3 side chain; on linkers, the order of the positions; unused ones are H or OH. Square brackets hold non-standard residues; d marks the D form. Primed or numbered codes have the meaning given here. Side chains are listed from the residue outwards. Ends that are not written are not given here. * marks the point of attachment. C20 diacid = O=C(O)CCCCCCCCCCCCCCCCCCC(=O)*; C18 diacid = O=C(O)CCCCCCCCCCCCCCCCC(=O)*; C16 diacid = O=C(O)CCCCCCCCCCCCCCC(=O)*; γGlu = O=C(O)[C@H](CCC(=O)[*:2])N[*:1]; Iva = CC[C@](C)(N)C(=O)O; PEG3′ = not defined here; Abu = CC[C@H](N)C(=O)O; Aib = CC(C)(N)C(=O)O
Rule: GIP EC50(pM) below 1 pM gives yes (1). Equal to or above 1 pM gives no (0).

Worked set:
binder	category.label
Y[Aib]EGTFISDYSIALDR[Aib]HQ[Aib]NFVNW[Iva]LAQRPSSGAK([Abu-γGlu-C18 diacid])PPS (ends and bridges not checked) [Compound No. 542]	no (0)
Y[Aib]EGTFISDYSIALDR[Aib]HQ[Aib]NFVNW[Iva]LAQRPSK([PEG3′-γGlu-C16 diacid])GAPPPS (ends and bridges not checked) [Compound No. 515]	yes (1)
Y[Aib]EGTFISDYSIALDR[Aib]HQ[Aib]NFVNW[Iva]LAQRPSSGAPPK([PEG3′-PEG3′-C16 diacid])SR (ends and bridges not checked) [Compound No 933]	yes (1)
Y[Aib]EGTFISDYSIALDR[Aib]HQ[Aib]NFVNW[Iva]LAQRPSSGK([PEG3′-γGlu-C18 diacid])PPPS (ends and bridges not checked) [Compound No. 522]	no (0)
Y[Aib]EGTFISDYSIALDR[Aib]HQ[Aib]NFVNW[Iva]LAQRPSSGAPK([γGlu-γGlu-C18 diacid])PS (ends and bridges not checked) [Compound No. 553]	no (0)

Given Y[Aib]EGTFISDYSIALDR[Aib]HQ[Aib]NFVNW[Iva]LAQRPSSGAPPPK([PEG3′-γGlu-C20 diacid]) (ends and bridges not checked) [Compound No. 535] , is recorded GIP EC50(pM) strictly lower than 1 pM?
no (0)

Given Y[Aib]EGTFISDYSIALDR[Aib]HQ[Aib]NFVNW[Iva]LAQRPSSGAPK([PEG3′-γGlu-C20 diacid])PS (ends and bridges not checked) [Compound No. 529] , is recorded GIP EC50(pM) strictly lower than 1 pM?
no (0)

Given Y[Aib]EGTFISDYSIALDR[Aib]HQ[Aib]NFVNW[Iva]LAQRPSSGAPK([PEG3′-PEG3′-C18 diacid])PSR (ends and bridges not checked) [Compound No 928] , is recorded GIP EC50(pM) strictly lower than 1 pM?
no (0)
